Where do the numbers come from? From ChEMBL document CHEMBL2417420.

Assign inhibition to each entry below.
# TARGET SYSTEM: Autotaxin (Homo sapiens, UniProt Q13822)
# MEASUREMENT PROTOCOL: Inhibition of C-terminal FLAG-tagged human recombinant autotaxin using synthetic substrate FS-3 at 10 uM measured every 2 mins by FRET assay relative to control
Give bare numbers, in %.

Examples with answers:
CCCCOc1ccc(-c2nc3cc(C(=O)NCc4cc(F)ccc4F)ccc3n2CCc2ccc(OC)c(OC)c2)cc1 :: 30
CC(C)Cc1ccc(C(C)C(=O)N2CCN(c3ncccc3C(=O)NC(C(N)=O)C(C)O)CC2C)cc1 (stereo not given) :: 30
COc1cc(/C=N/NC(=O)c2cc(-c3ccc(OC)c(OC)c3)n[nH]2)ccc1O :: 10
O=C1/C(=C/c2cccc(Oc3ccccc3)c2)SC(=S)N1Cc1ccccc1 :: 20
C=CCOC(=O)C1=C(C)NC(SCC(=O)Nc2cccc(Cl)c2)=C(C#N)C1c1ccc(O)c(OC)c1 (stereo not given) :: 30
Cc1ccccc1C(=O)NCC1CCC(c2cc3n(n2)CCN3C(=O)COc2ccccc2)CC1 (stereo not given) :: 30
COc1ccc(CCn2c(-c3cc(OC)c(OC)c(OC)c3)nc3cc(C(=O)NCCOCCO)ccc32)cc1OC :: 20
CCOc1cc(/C=C2/NC(=O)N(Cc3cccc(F)c3)C2=O)cc(Cl)c1OCC :: 10
CC(O)C(NC(=O)c1ccc(N2CCC(CCCC3CCN(C(=O)Cc4ccc(-c5ccccc5)cc4)CC3)CC2)nc1)C(N)=O (stereo not given) :: 85.3
CC(=O)N1c2ccc(NC(=O)c3ccc(Cl)cc3Cl)cc2C2(c3ccccc3)N(C(C)=O)c3ccc(NC(=O)c4ccc(Cl)cc4Cl)cc3C12c1ccccc1 (stereo not given) :: 10

I need inhibition for every entry listed below, if you could help.
1. CCCCCCOC(=O)Oc1ccc(/C=N/c2ccc(OCC)cc2)cc1
2. O=C(O)c1cccc(/N=C2\S/C(=C\c3ccc(-c4cccc(Cl)c4)o3)C(=O)N2Cc2ccccc2)c1
3. CC(=O)N1CCc2cc(NC(=O)c3ccc4nc(C)c(N(C)C(=O)CCc5ccccc5)n4c3)ccc21
4. COc1ccc(CCNC(=O)c2ccc3c(c2)nc(-c2cc(OC)c(OC)c(OC)c2)n3CCc2ccc(OC)c(OC)c2)cc1OC
5. Cc1cc2cc(C#N)c(SCC(=O)Nc3ccc(N(C)C)cc3)nc2cc1C
6. COc1ccc(-c2nc3cc(C(=O)NCCOCCO)ccc3n2CCc2ccc(OC)c(OC)c2)c(OC)c1

Response given:
1. 0
2. 0
3. 20
4. 30
5. 0
6. 10
